The origin of these recorded values is PubChem BioAssay (EPA / NIEHS).

Experiment: Tanguay_ZF_120hpf_ActivityScore_legacy: (Legacy) Oregon State University Tanguay Lab 120 Hour Post-fertilization zebrafish Assay Score for Activity (AID 2283742)
Calls of active or inactive are those of the source. The calls were made as follows: active = hit-call score of the fitted dose curve at least 0.9, where 1 is the maximum; inconclusive = response in the unintended direction; inactive = score below 0.9.
Give one outcome, nothing more. List: active, inactive

Illustrative cases are given below, each with its answer.
O=C(c1ccc(OCCN2CCCCC2)cc1)c1c(-c2ccc(O)cc2)sc2cc(O)ccc12 ... inactive
C[C@]12CC[C@@H]3c4ccc(O)cc4CC[C@H]3[C@@H]1CC[C@@H]2O ... inactive

I'd appreciate the recorded outcome for "C#C[C@]1(O)CC[C@H]2[C@@H]3CCc4cc(O)ccc4[C@H]3CC[C@@]21C" from this test.
inactive

Try the compound "COC(=O)c1ccc(C(=O)OC)cc1"
active
